Below, Ki values reported for Carbonic anhydrase 12 (Homo sapiens) across several publications.
Rule: Ki below 100 nM gives 1, anything at or above gives -1.

[
  {
    "compound": "C/C(=N\\NC(N)=S)c1nnn(-c2ccc(F)cc2)c1C",
    "label_value": -1
  },
  {
    "compound": "CC(Nc1nc(Cl)nc(Nc2ccc(S(N)(=O)=O)cc2)n1)C(=O)O (racemic)",
    "label_value": 1
  },
  {
    "compound": "NS(=O)(=O)c1ccc(N2C(=O)c3c(Br)c(Br)c(Br)c(Br)c3C2=O)c(Cl)c1",
    "label_value": 1
  },
  {
    "compound": "COC(=O)CS(=O)(=O)c1cc(Cl)c(C)cc1S(N)(=O)=O",
    "label_value": -1
  },
  {
    "compound": "O=S(=O)(NC1CC1)NC1CC1",
    "label_value": -1
  },
  {
    "compound": "COc1ccc2oc(=O)c(C(=O)O)cc2c1",
    "label_value": -1
  },
  {
    "compound": "O=C(NO)[C@H]1C[C@H](NS(=O)(=O)c2ccc(-c3ccccc3)cc2)CN1S(=O)(=O)c1ccc(OC(F)(F)F)cc1",
    "label_value": -1
  },
  {
    "compound": "CC(=O)c1c(O)c2ccccc2oc1=O",
    "label_value": -1
  },
  {
    "compound": "NS(=O)(=O)c1ccc(CNC(=S)N[C@@H]2O[C@H](CO)[C@@H](O[C@H]3O[C@H](CO)[C@@H](O)[C@H](O)[C@H]3O)[C@H](O)[C@H]2O)cc1",
    "label_value": 1
  },
  {
    "compound": "NCCCN(CCc1ccccc1)CC(=O)N(CCc1ccc(S(N)(=O)=O)cc1)Cc1ccco1",
    "label_value": 1
  },
  {
    "compound": "CC(=O)OC[C@H]1O[C@@H](SNCCc2ccc(S(N)(=O)=O)cc2)[C@H](OC(C)=O)[C@@H](OC(C)=O)[C@@H]1O[C@H]1O[C@H](COC(C)=O)[C@@H](OC(C)=O)[C@H](OC(C)=O)[C@H]1OC(C)=O",
    "label_value": 1
  },
  {
    "compound": "O=S(=O)(NC1CCCCC1)NC1CCCCC1",
    "label_value": -1
  },
  {
    "compound": "CCCCCCN(CCCCCC)CC(=O)N(CCCN)CCc1ccc(S(N)(=O)=O)cc1",
    "label_value": 1
  },
  {
    "compound": "O=c1ccc2cc(O)c(O)cc2o1",
    "label_value": 1
  },
  {
    "compound": "NS(=O)(=O)c1ccc(C(=O)OCc2ccc(CO[N+](=O)[O-])cc2)cc1",
    "label_value": -1
  },
  {
    "compound": "Cc1nn(-c2ccccc2)c2c1c(=O)oc1ccc(NC(=O)c3ccccc3)cc12",
    "label_value": -1
  },
  {
    "compound": "O=S(=O)(O)/C=C/c1cc(Br)ccc1O",
    "label_value": -1
  },
  {
    "compound": "CCCCOc1ccc(S(N)(=O)=O)cc1",
    "label_value": 1
  },
  {
    "compound": "C=CCNc1ccc(S(N)(=O)=O)cc1",
    "label_value": -1
  },
  {
    "compound": "COc1ccc(NC(=O)c2ccc3c(c2)C(=O)N(CCc2ccccc2)C3=O)c(C(=O)O)c1",
    "label_value": -1
  },
  {
    "compound": "CC(=O)N1N=C(c2ccc(C)cc2)CC1c1ccc(OS(N)(=O)=O)cc1 (stereo not given)",
    "label_value": 1
  },
  {
    "compound": "COc1ccc2nc(-c3ccccc3C)cc(C(=O)Nc3ccc4c(c3)c(S(N)(=O)=O)cn4C)c2c1",
    "label_value": -1
  },
  {
    "compound": "NS(=O)(=O)c1ccc(-c2cccc(-c3ccc(S(N)(=O)=O)cc3)c2)cc1",
    "label_value": 1
  },
  {
    "compound": "O=C1C[C@H](O)[C@@H](CO)OC1NS(=O)(=O)c1ccc(O)cc1 (stereo not given in full)",
    "label_value": -1
  },
  {
    "compound": "Cc1nn(-c2ccccc2)c2c1c(=O)oc1ccc(NCc3ccccc3)cc12",
    "label_value": -1
  },
  {
    "compound": "COc1ccc(-c2cc(C(=O)Nc3ccc4c(c3)c(S(N)(=O)=O)cn4C)c3ccccc3n2)cc1OC",
    "label_value": -1
  },
  {
    "compound": "Nc1ccc(S(N)(=O)=O)cc1Cl",
    "label_value": 1
  },
  {
    "compound": "Cn1cc(S(N)(=O)=O)c2cc(NC(=O)c3cc(Cl)nc(Br)c3)ccc21",
    "label_value": -1
  },
  {
    "compound": "CC(=O)OC[C@H]1O[C@H](NS(=O)(=O)c2ccc(O)cc2)C=C[C@H]1OC(C)=O",
    "label_value": -1
  },
  {
    "compound": "CC(Sc1nc(-c2ccc(Cl)c(F)c2)c(C#N)c(=O)[nH]1)C(=O)Nc1ccc(S(N)(=O)=O)cc1 (stereo not given)",
    "label_value": 1
  },
  {
    "compound": "COc1cc(Br)c(C[C@H]2C[C@H]2C(=O)O)c(Br)c1OC",
    "label_value": -1
  },
  {
    "compound": "Nc1nc(-c2ccc(NC(=O)c3ccc(O)c(O)c3)cc2)cn2c(=O)n(-c3ccccc3)nc12",
    "label_value": -1
  },
  {
    "compound": "NS(=O)(=O)c1ccc(CNc2nc(Cl)nc(NC(Cc3ccc(O)c(O)c3)C(=O)O)n2)cc1 (racemic)",
    "label_value": 1
  },
  {
    "compound": "Cc1nn(Cc2ccccc2)c2c1c(=O)oc1ccccc12",
    "label_value": -1
  },
  {
    "compound": "NS(=O)(=O)c1ccc(CCNCc2ccco2)cc1",
    "label_value": 1
  },
  {
    "compound": "Nc1nc(-c2ccc(NC(=O)CCC(=O)O)cc2)cn2c(=O)n(-c3ccccc3)nc12",
    "label_value": -1
  },
  {
    "compound": "C/C(CN1C(=O)c2ccccc2S1(=O)=O)=N\\O (mixture of isomers)",
    "label_value": -1
  },
  {
    "compound": "O=S(=O)(N[C@@H]1C=C[C@@H](O)[C@@H](CO)O1)c1ccc(O)cc1",
    "label_value": -1
  },
  {
    "compound": "O=Cc1cc(Br)ccc1OCc1cn(CCCOc2ccc3ccc(=O)oc3c2)nn1",
    "label_value": -1
  }
]
